Parameter GI50: see the listing below.
Test system: OVCAR-5 ovarian
Assay Details: NCI tumour cell line growth inhibition, 48 h

Compound	Tested System	Observed Value
O=C(/C=C/c1ccc(O)c(O)c1)NCc1c[nH]c2ccccc12	OVCAR-5 ovarian	> 100 µM
COC(=O)c1cc2c(cc1Cl)SC1=NN(C)S(=O)N1S2(=O)=O (stereo unspecified)	OVCAR-5 ovarian	> 100 µM
CSc1ncc(Br)c(Sc2nc(N)nc3nc[nH]c23)n1	OVCAR-5 ovarian	4.98 µM
COc1ccc(/C=C/C(=O)c2ccc(-n3cc(CN4CCN(c5cc6c(cc5F)c(=O)c(C(=O)O)cn6C5CC5)CC4)nn3)cc2)cc1OC	OVCAR-5 ovarian	3.7 µM
CC1CN(S(=O)(=O)c2oc(-c3ccc(Cl)cc3)nc2C#N)CC(C)O1 (stereo unspecified)	OVCAR-5 ovarian	2.07 µM
O=S1(=O)N(Cc2ccccc2)[C@@H](Cc2ccccc2)[C@H](O)[C@H](O)[C@H](Cc2ccccc2)N1Cc1ccccc1	OVCAR-5 ovarian	3.57 µM

Task item: Data request, read-out GI50, for `O=C(Nc1ccc(F)cc1F)c1cc(Cl)ccc1O`
Reply: 4.4 µM

Task item: Next compound: CCCCCN(CCCCC)CC(O)c1cc(Cl)ccc1OC (stereo unspecified)
Reply: 10.4 µM

Task item: Next compound: `CN1CCN(Cc2ccc(NC(=O)c3cncc(C#Cc4cnc(N)cc4C#N)c3)cc2C(F)(F)F)CC1`
Reply: 2.76 µM

Task item: Next compound: O=C1C2=C(C(=O)c3cnccc31)C1C=CC2CC1 (stereo unspecified)
Reply: 1.93 µM

Task item: Next compound: NCCCCC1NC(=O)C(CC(=O)O)NC(=O)CNC(=O)C(CCCN=C(N)N)NC(=O)C(N)CSSCC(C(=O)O)NC(=O)C(CC(=O)O)NC(=O)C2CCCN2C(=O)CNC1=O (stereo unspecified)
Reply: > 100 µM

Task item: Next compound: `COc1ccc(C(=O)c2cc3c(N)c(C(=O)Nc4ccccc4)sc3nc2C)cc1`
Reply: 3.1 µM

Task item: Next compound: `Cc1cc(Nc2nc(C(=O)Nc3ccccc3)nc3ccccc23)n[nH]1`
Reply: > 25 µM

Task item: Next compound: `COc1ccc(NC(=O)/C=C(C)/C=C/C=C(C)/C=C/C2=C(C)CCCC2(C)C)cc1`
Reply: 15.9 µM

Task item: Next compound: `c1cc(-c2nnc(SSc3ncnc4nc[nH]c34)o2)ccn1`
Reply: 3.1 µM

Task item: Next compound: `Oc1c(Cl)cc(Cl)c2ccc(Cn3cc(-c4cc(C(F)(F)F)cc(C(F)(F)F)c4)nn3)nc12`
Reply: 2.9 µM

====

Tested on: NCI-H522 lung
Assay Details: NCI tumour cell line growth inhibition, 48 h
Parameter TGI: see the listing below.

The cases that follow already have their TGI on record.
Compound	TGI
Nc1ccc(Nc2cc(=O)[nH]c(=O)[nH]2)cc1	> 100 µM
CCC(COC(=O)CC[C@@H](NC(=O)C(C)NC(=O)C(C)OC1C(O)C(CO)OC(OCc2ccccc2)C1NC(C)=O)C(N)=O)NC1c2ccccc2Nc2cccc([N+](=O)[O-])c21 (stereo not given in full)	> 100 µM
O=c1[nH]c(=O)n(COCCO)c2ccsc12	> 100 µM
O=C1C[C@@H]2[C@@H](CCC23CC3)N1	> 100 µM

Now take the following compound into account.
Task item: Data request, read-out TGI, for CC1CN(S(=O)(=O)c2oc(-c3ccc(Cl)cc3)nc2C#N)CC(C)O1 (stereo not given)
Reply: 2.79 µM

Sourced from PubChem BioAssay (NCI)
